Test system: Escherichia coli
procedure.summary: Antibacterial activity against Escherichia coli DH5a assessed as bacterial growth inhibition
Assay type: functional
Peptide text beside a SMILES is read from it. * marks the point of attachment. Undecanoyl = CCCCCCCCCCC(=O)*; Nonanoyl = CCCCCCCCC(=O)*
In this section we review reported MIC values for a set of molecules.

The molecule CCCCCCCCC(=O)NCC(=O)N[C@@H](CC(C)C)C(=O)N[C@@H](CC(C)C)C(=O)N[C@@H](CCCCN)C(=O)N[C@H](C(=O)N[C@H](C(=O)N[C@@H](CCCCN)C(=O)N[C@@H](CCCCN)C(=O)N[C@@H](CC(C)C)C(=O)N[C@@H](CC(C)C)C(N)=O)[C@@H](C)CC)[C@@H](C)CC (Nonanoyl-GLLKIIKKLL-NH2) on Escherichia coli: MIC was > 155 µM

Field MIC (system: Escherichia coli) for entry CCCCCCCCCCC(=O)NCC(=O)N[C@@H](CC(C)C)C(=O)N[C@@H](CC(C)C)C(=O)N[C@@H](CCCCN)C(=O)N[C@@H](Cc1ccccc1)C(=O)N[C@H](C(=O)N[C@@H](CCCCN)C(=O)N[C@@H](CCCCN)C(=O)N[C@@H](CC(C)C)C(=O)N[C@@H](CC(C)C)C(N)=O)[C@@H](C)CC (Undecanoyl-GLLKFIKKLL-NH2) = > 170 µM

Recorded MIC for CCCCCCCCCCC(=O)NCC(=O)N[C@@H](CC(C)C)C(=O)N[C@@H](CC(C)C)C(=O)N[C@@H](CCCCN)C(=O)N[C@H](C(=O)N[C@H](C(=O)N[C@@H](CCCCN)C(=O)N[C@@H](CCCCN)C(=O)N[C@@H](CC(C)C)C(=O)N[C@@H](CC(C)C)C(N)=O)[C@@H](C)CC)[C@@H](C)CC (Undecanoyl-GLLKIIKKLL-NH2) on Escherichia coli was > 174 µM

Noted MIC for CCCCCCCCCCC(=O)NCC(=O)N[C@@H](CC(C)C)C(=O)N[C@@H](CC(C)C)C(=O)N[C@@H](CCCCN)C(=O)N[C@@H](CCCCN)C(=O)N[C@H](C(=O)N[C@@H](CCCCN)C(=O)N[C@@H](CCCNC(=N)N)C(=O)N[C@@H](CC(C)C)C(=O)N[C@@H](CC(C)C)C(N)=O)[C@@H](C)CC (Undecanoyl-GLLKKIKRLL-NH2) , tested on Escherichia coli: 34.4 µM

###

System: Escherichia coli
procedure.summary: Antibacterial activity against Escherichia coli ATCC 25922 assessed as reduction in bacterial cell growth measured for 18 hrs by Mueller-Hinton broth based two-fold serial dilution method
Format: functional
Square brackets hold non-standard residues; d marks the D form. Peptide text beside a SMILES is read from it. * marks the point of attachment. Pentadecanoyl = CCCCCCCCCCCCCCC(=O)*; NMeR = CN[C@@H](CCCNC(=N)N)C(=O)O; Tridecanoyl = CCCCCCCCCCCCC(=O)*; Undecanoyl = CCCCCCCCCCC(=O)*; NMeK = CN[C@@H](CCCCN)C(=O)O; Nonanoyl = CCCCCCCCC(=O)*
measured.endpoint: MIC (µM)
Write it as a number; the unit µM goes unstated.

Recorded MIC, per entry:
CCCCCCCCCCC(=O)NCC(=O)N[C@@H](CC(C)C)C(=O)N[C@@H](CC(C)C)C(=O)N[C@@H](CCCCN)C(=O)N(C)[C@@H](CCCNC(=N)N)C(=O)N[C@H](C(=O)N(C)[C@@H](CCCCN)C(=O)N[C@H](C(=O)N[C@@H](CC(C)C)C(=O)N[C@@H](CC(C)C)C(N)=O)[C@@H](C)O)[C@@H](C)CC (Undecanoyl-GLLK[NMeR]I[NMeK]TLL-NH2): 16
CCCCCCCCCCCCC(=O)NCC(=O)N[C@@H](CC(C)C)C(=O)N[C@@H](CC(C)C)C(=O)N[C@@H](CCCCN)C(=O)N(C)[C@@H](CCCNC(=N)N)C(=O)N[C@H](C(=O)N(C)[C@@H](CCCCN)C(=O)N[C@H](C(=O)N[C@@H](CC(C)C)C(=O)N[C@@H](CC(C)C)C(N)=O)[C@@H](C)O)[C@@H](C)CC (Tridecanoyl-GLLK[NMeR]I[NMeK]TLL-NH2): 8
CCCCCCCCCCCCCCC(=O)NCC(=O)N[C@@H](CC(C)C)C(=O)N[C@@H](CC(C)C)C(=O)N(C)[C@@H](CCCCN)C(=O)N[C@@H](CCCNC(=N)N)C(=O)N[C@H](C(=O)N(C)[C@@H](CCCCN)C(=O)N[C@H](C(=O)N[C@@H](CC(C)C)C(=O)N[C@@H](CC(C)C)C(N)=O)[C@@H](C)O)[C@@H](C)CC (Pentadecanoyl-GLL[NMeK]RI[NMeK]TLL-NH2): 16
CCCCCCCCCCC(=O)NCC(=O)N[C@@H](CC(C)C)C(=O)N[C@@H](CC(C)C)C(=O)N[C@@H](CCCCN)C(=O)N[C@@H](CCCNC(=N)N)C(=O)N[C@H](C(=O)N[C@@H](CCCCN)C(=O)N[C@H](C(=O)N[C@@H](CC(C)C)C(=O)N[C@@H](CC(C)C)C(N)=O)[C@@H](C)O)[C@@H](C)CC (Undecanoyl-GLLKRIKTLL-NH2): 8
CCCCCCCCCCCCCCC(=O)NCC(=O)N[C@@H](CC(C)C)C(=O)N[C@@H](CC(C)C)C(=O)N[C@@H](CCCCN)C(=O)N[C@@H](CCCNC(=N)N)C(=O)N[C@H](C(=O)N[C@@H](CCCCN)C(=O)N[C@H](C(=O)N[C@@H](CC(C)C)C(=O)N[C@@H](CC(C)C)C(N)=O)[C@@H](C)O)[C@@H](C)CC (Pentadecanoyl-GLLKRIKTLL-NH2): 16

MIC for CCCCCCCCC(=O)NCC(=O)N[C@@H](CC(C)C)C(=O)N[C@@H](CC(C)C)C(=O)N(C)[C@@H](CCCCN)C(=O)N[C@@H](CCCNC(=N)N)C(=O)N[C@H](C(=O)N(C)[C@@H](CCCCN)C(=O)N[C@H](C(=O)N[C@@H](CC(C)C)C(=O)N[C@@H](CC(C)C)C(N)=O)[C@@H](C)O)[C@@H](C)CC (Nonanoyl-GLL[NMeK]RI[NMeK]TLL-NH2) is 128

###

// reported HC50 at 1 h per item
procedure.summary: Hemolytic activity in mouse Red blood cells incubated for 1 hr by microplate reader assay
Assay type: toxicity, cell-based, Erythrocyte
test.conditions: red blood cells
Square brackets hold non-standard residues; d marks the D form. Peptide text beside a SMILES is read from it. * marks the point of attachment. Pentadecanoyl = CCCCCCCCCCCCCCC(=O)*; NMeR = CN[C@@H](CCCNC(=N)N)C(=O)O; NMeI = CC[C@H](C)[C@H](NC)C(=O)O; Tridecanoyl = CCCCCCCCCCCCC(=O)*; NMeL = CN[C@@H](CC(C)C)C(=O)O; NMeK = CN[C@@H](CCCCN)C(=O)O
Write the value in µM as a bare number.

CCCCCCCCCCCCC(=O)NCC(=O)N[C@@H](CC(C)C)C(=O)N[C@@H](CC(C)C)C(=O)N[C@@H](CCCCN)C(=O)N(C)[C@@H](CCCNC(=N)N)C(=O)N[C@H](C(=O)N(C)[C@@H](CCCCN)C(=O)N[C@H](C(=O)N[C@@H](CC(C)C)C(=O)N[C@@H](CC(C)C)C(N)=O)[C@@H](C)O)[C@@H](C)CC (Tridecanoyl-GLLK[NMeR]I[NMeK]TLL-NH2): 64

The molecule listed as CCCCCCCCCCCCCCC(=O)NCC(=O)N[C@@H](CC(C)C)C(=O)N(C)[C@@H](CC(C)C)C(=O)N[C@@H](CCCCN)C(=O)N[C@@H](CCCNC(=N)N)C(=O)N(C)[C@H](C(=O)N[C@@H](CCCCN)C(=O)N[C@H](C(=O)N[C@@H](CC(C)C)C(=O)N[C@@H](CC(C)C)C(N)=O)[C@@H](C)O)[C@@H](C)CC (Pentadecanoyl-GL[NMeL]KR[NMeI]KTLL-NH2) shows HC50 at 1 h equal to 64

###

procedure.summary: Hemolytic activity in human RBC assessed as hemolysis
Type: toxicity, cell-based, Erythrocyte
test.conditions: red blood cells
Peptide text beside a SMILES is read from it.
// reported HC50 per item
Write down the numeric answer in µM and omit the unit.

Form field HC50, entry CC[C@H](C)[C@H](NC(=O)[C@H](CCCNC(=N)N)NC(=O)[C@H](CCCCN)NC(=O)[C@H](CC(C)C)NC(=O)[C@H](CC(C)C)NC(=O)CN)C(=O)N[C@@H](CCCCN)C(=O)N[C@@H](CC(C)C)C(=O)N[C@@H](CC(C)C)C(=O)N[C@@H](CC(C)C)C(N)=O (H-GLLKRIKLLL-NH2) : 102

Please fill in: HC50 reported for CC[C@H](C)[C@H](NC(=O)[C@H](CCCNC(=N)N)NC(=O)[C@H](CCCCN)NC(=O)[C@H](CC(C)C)NC(=O)[C@H](CC(C)C)NC(=O)CN)C(=O)N[C@@H](CCCCN)C(=O)N[C@@H](Cc1c[nH]c2ccccc12)C(=O)N[C@@H](CC(C)C)C(=O)N[C@@H](CC(C)C)C(N)=O (H-GLLKRIKWLL-NH2) = 500
